Tested on: GI-ME-N;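 also: growth inhibition of human GI-ME-N cells, read out with a cell viability assay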
Experiment: cells
Format: functional, cell-based, Homo sapiens
Settings: Homo sapiens, GI-ME-N
Description: SANGER: Inhibition of human GI-ME-N cell growth in a cell viability assay.
Counter-ions that a name gives are not always drawn.
MEASUREMENT TYPE: IC50 (µM)
Kindly provide the numeric value in µM only, without the unit symbol.

IN: Report IC50 for Cc1ccc(-c2c(C(=O)CCl)n(CCCO)c3ncnc(N)c23)cc1 please.
OUT: 2.52

IN: Any idea what its IC50 is? The compound is Cc1cc([N+](=O)[O-])ccc1NS(=O)(=O)c1cc(Cl)ccc1Cl
OUT: 11.5

IN: Name the reported IC50 value associated with the compound COC1=CC(c2cc3ccccc3[nH]2)=N/C1=C\c1[nH]c(C)cc1C [OBATOCLAX MESYLATE]
OUT: 5.01

====

Tested on: SCC-25;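 also: growth inhibition of SCC-25 cells, measured with a cell viability assay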
Experiment: cells
Type: functional, cell-based, Homo sapiens
Details: Homo sapiens, SCC-25
Description: SANGER: Inhibition of human SCC-25 cell growth in a cell viability assay.
pIC50: −log10 of the molar value.
Please go through the items and note down their pIC50.

IN: Entry CO[C@H]1C[C@@H]2CC[C@@H](C)[C@@](O)(O2)C(=O)C(=O)N2CCCC[C@H]2C(=O)O[C@H]([C@H](C)C[C@@H]2CC[C@@H](OC(=O)C(C)(CO)CO)[C@H](OC)C2)CC(=O)[C@H](C)/C=C(\C)[C@@H](O)[C@@H](OC)C(=O)[C@H](C)C[C@H](C)/C=C/C=C/C=C/1C : reported pIC50 = ?
OUT: < 6.70

IN: Item CS(=O)(=O)c1ccc(C(=O)Nc2ccc(Cl)c(-c3ccccn3)c2)c(Cl)c1 has what recorded pIC50?
OUT: < 5.00

IN: Need pIC50 of C=C(c1ccc(C(=O)O)cc1)c1cc2c(cc1C)C(C)(C)CCC2(C)C , thanks.
OUT: < 5.10

IN: Value lookup for pIC50; key = N#Cc1c(O)c2c(-c3ccc(-c4ccccc4O)cc3)csc2[nH]c1=O
OUT: < 5.99

IN: pIC50 lookup needed for Oc1ccc2ccccc2c1SSc1c(O)ccc2ccccc12 , thanks.
OUT: < 4.49

IN: Item under review: Cc1cc([N+](=O)[O-])ccc1NS(=O)(=O)c1cc(Cl)ccc1Cl . Reported pIC50?
OUT: 4.96

====

I'd appreciate it if you could supply pIC50 values for the items below.
System: FTC-133
Assay: cells
Format: functional, cell-based, Homo sapiens
Conditions: Homo sapiens, FTC-133
pIC50: −log10 of the molar value.

IN: Endpoint output: pIC50 of Cc1cn(-c2cc(NC(=O)c3ccc(C)c(Nc4nccc(-c5cccnc5)n4)c3)cc(C(F)(F)F)c2)cn1 . Value?
OUT: < 5.70

IN: Recorded pIC50 for Oc1ccc2ccccc2c1SSc1c(O)ccc2ccccc12 , please?
OUT: < 4.49

IN: I'd like to know its pIC50. The molecule in question is N#Cc1c(O)c2c(-c3ccc(-c4ccccc4O)cc3)csc2[nH]c1=O
OUT: < 5.99

IN: Param item = CC(C)c1ccccc1Cc1cc(C(=O)Nc2ccc(S(=O)(=O)c3ccccc3C(C)(C)C)cc2)c(O)c(O)c1O ; retrieve measured pIC50.
OUT: 6.22

IN: What pIC50 value was documented for this molecule, Cn1cnc2c(F)c(Nc3ccc(Br)cc3Cl)c(C(=O)NOCCO)cc21 ?
OUT: < 5.40

IN: Please give the measured pIC50 for this molecule: CCC/C=C/C=C/C(=O)O[C@H]1/C(=C/C(=O)OC)C[C@H]2C[C@H]([C@@H](C)O)OC(=O)C[C@H](O)C[C@@H]3C[C@H](OC(C)=O)C(C)(C)[C@](O)(C[C@@H]4C/C(=C/C(=O)OC)C[C@H](/C=C/C(C)(C)[C@]1(O)O2)O4)O3
OUT: < 8.10

====

Tested on: NBsusSR
Assay: cells
Format: functional, cell-based, Homo sapiens
Settings: Homo sapiens, NBsusSR
Description: SANGER: Inhibition of human NBsusSR cell growth in a cell viability assay.
MEASUREMENT TYPE: IC50

IN: Form field: reported IC50 of Cn1cnc2c(F)c(Nc3ccc(Br)cc3Cl)c(C(=O)NOCCO)cc21 [SELUMETINIB]
OUT: > 4 µM

IN: Give its IC50 value. Item: CS(=O)(=O)c1ccc(C(=O)Nc2ccc(Cl)c(-c3ccccn3)c2)c(Cl)c1 [VISMODEGIB]
OUT: > 10 µM

====

Tested on: TE-1
Test: cells
Type: functional, cell-based, Homo sapiens
Conditions: Homo sapiens, TE-1
Description: SANGER: Inhibition of human TE-1 cell growth in a cell viability assay.
pIC50: −log10 of the molar value.
I'd appreciate it if you could supply pIC50 values for the items below.

IN: Entry Nc1ccn([C@@H]2O[C@H](CO)[C@@H](O)C2(F)F)c(=O)n1 [GEMCITABINE] has what pIC50?
OUT: < 5.99

IN: Param item = OCCCNc1cc(-c2ccnc(Nc3cccc(Cl)c3)n2)ccn1 ; retrieve measured pIC50.
OUT: < 6.59

IN: Look up pIC50: CO[C@H]1C[C@@H]2CC[C@@H](C)[C@@](O)(O2)C(=O)C(=O)N2CCCC[C@H]2C(=O)O[C@H]([C@H](C)C[C@@H]2CC[C@@H](OC(=O)C(C)(CO)CO)[C@H](OC)C2)CC(=O)[C@H](C)/C=C(\C)[C@@H](O)[C@@H](OC)C(=O)[C@H](C)C[C@H](C)/C=C/C=C/C=C/1C [TEMSIROLIMUS]
OUT: < 6.70

IN: If you can, please state the reported pIC50 value of Cc1ccc(-c2c(C(=O)CCl)n(CCCO)c3ncnc(N)c23)cc1 .
OUT: < 5.40

IN: For the compound shown here, COc1cc2ncn(-c3cc(OCc4ccccc4S(C)(=O)=O)c(C#N)s3)c2cc1OC [GSK-319347A] , give the reported pIC50.
OUT: < 5.30

IN: Sample C=C(c1ccc(C(=O)O)cc1)c1cc2c(cc1C)C(C)(C)CCC2(C)C [BEXAROTENE] — what was its pIC50?
OUT: < 5.10

====

Test system: NCI-H2347
Experiment: cells
Assay type: functional, cell-based, Homo sapiens
Conditions: Homo sapiens, NCI-H2347
Description: SANGER: Inhibition of human NCI-H2347 cell growth in a cell viability assay.
pIC50: −log10 of the molar value.
MEASUREMENT TYPE: pIC50

IN: Consider the molecule Cc1cc([N+](=O)[O-])ccc1NS(=O)(=O)c1cc(Cl)ccc1Cl and give its measured pIC50.
OUT: 5.23

IN: Value lookup for pIC50; key = COc1cc2c(Nc3ccc(NC(=O)c4ccccc4)cc3)ncnc2cc1OCCCN1CCOCC1
OUT: < 5.40

IN: # query: pIC50 of entry CS(=O)(=O)c1ccc(C(=O)Nc2ccc(Cl)c(-c3ccccn3)c2)c(Cl)c1
OUT: < 5.00

IN: Field request: pIC50 | item: C=C(c1ccc(C(=O)O)cc1)c1cc2c(cc1C)C(C)(C)CCC2(C)C
OUT: < 5.10

====

Test system: ALL-PO;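 also: growth inhibition of ALL-PO cells, read out by a cell viability assay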
Assay: cells
Type: functional, cell-based, Homo sapiens
Settings: Homo sapiens, ALL-PO
Description: SANGER: Inhibition of human ALL-PO cell growth in a cell viability assay.
MEASUREMENT TYPE: pIC50
Keep it numeric: pIC50 is minus log10 of the concentration in mol/L.

IN: Consider the molecule CCN(CC)CCNC(=O)c1c(C)[nH]c(/C=C2\C(=O)Nc3ccc(F)cc32)c1C [SUNITINIB] and give its measured pIC50.
OUT: 7.10

IN: Returns the measured pIC50 for the input molecule. Input: COc1cccc2c1C(=O)c1c(O)c3c(c(O)c1C2=O)C[C@@](O)(C(=O)CO)C[C@@H]3O[C@H]1C[C@H](N)[C@H](O)[C@H](C)O1 [DOXORUBICIN]
OUT: 7.19

IN: Quick one: pIC50 of COc1cc2c(Nc3ccc(NC(=O)c4ccccc4)cc3)ncnc2cc1OCCCN1CCOCC1 ?
OUT: 5.57

IN: I'd like to know its pIC50. The molecule in question is N[C@@H](CSC(c1ccccc1)(c1ccccc1)c1ccccc1)C(=O)O [S-TRITYL-L-CYSTEINE]
OUT: 5.65

====

Could you please report measured pIC50 for the items listed next?
Tested on: NCI-H2405
Assay: cells
Type: functional, cell-based, Homo sapiens
Conditions: Homo sapiens, NCI-H2405
Description: SANGER: Inhibition of human NCI-H2405 cell growth in a cell viability assay.
Where a name gives a salt, the structure may show the parent alone.
Scale for pIC50: -log10 of concentration given in mol/L; no unit attached.

IN: API: value(readout=pIC50, system=NCI-H2405) for record COC1=CC(c2cc3ccccc3[nH]2)=N/C1=C\c1[nH]c(C)cc1C [OBATOCLAX MESYLATE]
OUT: 6.46

IN: Report pIC50 for Oc1ccc2ccccc2c1SSc1c(O)ccc2ccccc12 tested on NCI-H2405.
OUT: 4.92

IN: Param readout = pIC50; param system = NCI-H2405; param query = Cc1cc([N+](=O)[O-])ccc1NS(=O)(=O)c1cc(Cl)ccc1Cl ; response: value
OUT: 5.40

IN: Record CC(C)c1ccccc1Cc1cc(C(=O)Nc2ccc(S(=O)(=O)c3ccccc3C(C)(C)C)cc2)c(O)c(O)c1O : what is its pIC50 with NCI-H2405?
OUT: 6.17
